# System: human cardiac fibroblasts (HCF)
# assay text: BrdU incorporation, HCF proliferation (first screen)
# Type: cell-based
# assay setup: Homo sapiens, Cardiac fibroblast, 24 h, read-out: Effective conc. (BrdU), EC50 by BrdU assay
measurement type: pEC50
Lab note: report pEC50 as minus log10 of the concentration in molar units, number only.

For C[C@]12CC[C@H](O)C[C@H]1CC[C@@H]1[C@@H]2CC[C@]2(C)[C@@H](c3ccc(=O)oc3)CC[C@]12O [Bufalin, bufalin] the compound record lists pEC50 as 8.68
